Cited source: patent US11254686B1

Molecular target: adenosine A2A receptor (Homo sapiens (Human))
Assay: Adenosine receptor activity assay (Table 1), A2A activity
Type: biochemical
Details: read-out: Ave A2A cAMP IC50
assay.endpoint: IC50

compound	value
C[C@H](Nc1nc(C(=O)N2CC(CC(=O)NC(C)(C)C)C2)c2sccc2n1)c1cncc(F)c1	10 to 50 nM
COC[C@H]1CCN1C(=O)c1nc(N[C@@H](C)c2cncc(F)c2)nc2ccsc12	> 500 nM
CN(C(=O)c1nc(NCc2cncc(F)c2)nc2ccsc12)C1CCC(C)(C)C1 (stereo not drawn)	> 500 nM
C[C@H](Nc1nc(C(=O)NCCc2cccc(O)c2)c2sccc2n1)c1ccccn1	100 to 500 nM
C[C@H](Nc1nc(C(=O)N2CC[C@@H](O)C2)c2sccc2n1)c1cccc(F)c1	100 to 500 nM

Could you share which IC50 value was measured for `CO[C@H]1CCN(C(=O)c2nc(N[C@@H](C)c3cncc(F)c3)nc3cc(C)sc23)C1` ?
100 to 500 nM

###

Biological target: UniProt P29275
Experiment: Adenosine receptor activity assay (Table 1), A2B activity
Assay type: biochemical
Conditions: A2A activity to the A2B activity; A2A/A2B
assay.endpoint: Ratio

These solved cases illustrate the format of a correct answer.
compound	assay.endpoint	value
C[C@H](Nc1nc(C(=O)N2CCN(C(=O)OCC(C)(C)C)C2)c2sccc2n1)c1cncc(F)c1	Ratio	3.10
Cc1cc2nc(N[C@@H](C)c3ccccn3)nc(C(=O)N3CC(CNC(=O)C(C)(C)C)C3)c2s1	Ratio	7.31
C[C@H](Nc1nc(C(=O)N2CC(NC(=O)c3cccc(F)c3)C2)c2sccc2n1)c1cncc(F)c1	Ratio	2.55
Cc1cc2nc(N[C@@H](C)c3cncc(F)c3)nc(C(=O)N3CC(CNC(=O)OC(C)(C)C)C3)c2s1	Ratio	7.45
Cc1cc2nc(N[C@@H](C)c3cncc(F)c3)nc(C(=O)N3CC(NC(=O)CNC(=O)c4ccccc4)C3)c2s1	Ratio	33.02

1: C[C@H](Nc1nc(C(=O)NCCC2CCN(C(=O)OC(C)(C)C)C2)c2sccc2n1)c1ccccn1 (stereo partly shown)
2: COC(=O)c1ccc(CCNC(=O)c2nc(N[C@@H](C)c3cncc(F)c3)nc3ccsc23)cc1
Pick one, 1 or 2 : lowest reported Ratio. Please identify the chosen entry by its label.
1
(1: 0.82, 2: 5.22)

###

Target: adenosine A2A receptor (Homo sapiens (Human), UniProt P29274)
Sequence (P29274 whole entry): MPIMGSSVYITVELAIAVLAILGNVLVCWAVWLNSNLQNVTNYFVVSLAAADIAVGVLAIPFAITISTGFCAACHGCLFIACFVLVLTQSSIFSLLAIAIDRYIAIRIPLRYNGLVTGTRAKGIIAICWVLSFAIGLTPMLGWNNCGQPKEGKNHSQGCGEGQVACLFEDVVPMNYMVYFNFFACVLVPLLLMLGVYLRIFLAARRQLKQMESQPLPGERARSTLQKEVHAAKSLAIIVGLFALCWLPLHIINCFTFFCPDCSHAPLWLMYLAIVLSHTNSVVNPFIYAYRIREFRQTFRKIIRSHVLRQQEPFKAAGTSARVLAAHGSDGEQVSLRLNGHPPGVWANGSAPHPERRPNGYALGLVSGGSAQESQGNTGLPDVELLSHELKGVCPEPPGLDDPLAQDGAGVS
Assay: Adenosine receptor activity assay (Table 1), A2A activity
Type: biochemical
Conditions: read-out: Ave A2A cAMP IC50
pIC50: −log10 of the molar value.
assay.endpoint: pIC50

These solved cases illustrate the format of a correct answer.
smiles.input	pIC50
C[C@H](Nc1nc(C(=O)N2CC[C@H](S(C)(=O)=O)C2)c2sccc2n1)c1ccccn1	6.30 to 7.00
O=C(c1nc(NCc2cncnc2)nc2ccsc12)N1CCCC1	< 6.30
C[C@H](Nc1nc(C(=O)NC[C@@H](C)O)c2sc(C(F)(F)F)cc2n1)c1cccnc1	< 6.30
C[C@H](Nc1nc(C(=O)N2CC[C@H](O)C2)c2sc(N)cc2n1)c1cccnc1	< 6.30
NC(=O)c1cncc(CNc2nc(C(=O)N3CCCC3)c3sccc3n2)c1	< 6.30
C[C@H](Nc1nc(C(=O)NCC(C)(C)O)c2sccc2n1)c1ccccn1	< 6.30
Cc1csc2c(C(=O)NCCc3cccc(O)c3)nc(N[C@@H](C)c3ccccn3)nc12	7.00 to 7.30

For the record `C[C@H](Nc1nc(C(=O)N2CCCC2)c2sccc2n1)c1cncc(Cl)c1` , what value of pIC50 is listed for adenosine A2A receptor (Homo sapiens (Human), UniProt P29274)?
6.30 to 7.00

###

Target: adenosine A2B receptor (Homo sapiens (Human))
Sequence (P29275 whole entry): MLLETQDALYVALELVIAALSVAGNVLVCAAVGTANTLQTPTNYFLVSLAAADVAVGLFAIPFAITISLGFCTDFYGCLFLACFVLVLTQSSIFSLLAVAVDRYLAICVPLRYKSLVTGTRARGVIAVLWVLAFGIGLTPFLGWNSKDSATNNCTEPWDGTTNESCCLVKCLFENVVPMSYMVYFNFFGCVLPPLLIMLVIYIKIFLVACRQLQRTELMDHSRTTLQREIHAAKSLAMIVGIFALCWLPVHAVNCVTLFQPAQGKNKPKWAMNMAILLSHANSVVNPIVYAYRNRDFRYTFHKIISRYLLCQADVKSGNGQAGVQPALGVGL
Test: Adenosine receptor activity assay (Table 1), A2B activity
Type: biochemical
Settings: read-out: Ave A2B cAMP IC50
pIC50: −log10 of the molar value.
# key: entry, value: pIC50

These solved cases illustrate the format of a correct answer.
molecule	pIC50
Cc1csc2c(C(=O)NCc3ccccn3)nc(N[C@@H](C)c3ccccn3)nc12	7.30 to 8.00
C[C@H](Nc1nc(C(=O)N2CCC2)c2sc(N)cc2n1)c1cncc(F)c1	> 8.00
C[C@H](NC(=O)c1nc(N[C@@H](C)c2ccccn2)nc2ccsc12)c1ccccn1	7.30 to 8.00

Could you share which pIC50 value was measured for `CC(C)NC(=O)N1CCN(C(=O)c2nc(N[C@@H](C)c3cncc(F)c3)nc3ccsc23)C1` ?
7.00 to 7.30

Likewise for `Cc1cc2nc(N[C@@H](C)c3cncc(F)c3)nc(C(=O)N3CC(O)C3)c2s1` ?
> 8.00

Likewise for `Cc1cc2nc(N[C@@H](C)c3cccnc3)nc(C(=O)NC[C@H](C)O)c2s1` ?
> 8.00

Likewise for `CC(=O)N[C@H]1CCN(C(=O)c2nc(N[C@@H](C)c3ccccn3)nc3ccsc23)C1` ?
7.30 to 8.00

Likewise for CCC(NC(=O)c1nc(N[C@@H](C)c2cccnc2)nc2ccsc12)c1cccnc1 (some centres unmarked) ?
6.30 to 7.00

###

Target: adenosine A2A receptor (Homo sapiens (Human), UniProt P29274)
Assay: Adenosine receptor activity assay (Table 1), A2A activity
Assay type: biochemical
Conditions: read-out: Ave A2A cAMP IC50
pIC50: −log10 of the molar value.
assay.endpoint: pIC50

For the record `C[C@H](Nc1nc(C(=O)N[C@H]2C[C@H](O)C2)c2sccc2n1)c1cncc(Cl)c1` , what value of pIC50 is listed for adenosine A2A receptor (Homo sapiens (Human), UniProt P29274)?
< 6.30

Likewise for `C[C@H](Nc1nc(C(=O)NC(C)(C)C)c2sccc2n1)c1ccccn1` ?
7.00 to 7.30

Likewise for `C[C@H](Nc1nc(C(=O)NC2CN(C(=O)OC(C)(C)C)C2)c2sccc2n1)c1ccccn1` ?
7.00 to 7.30

###

Molecular target: UniProtKB P0DMS8
Assay: Adenosine receptor activity assay (Table 1), A3 cAMP
Assay type: cell-based
assay.endpoint: IC50

compound	target.desc	assay.endpoint	value
COC1CN(C(=O)c2nc(N[C@@H](C)c3cccnc3)nc3cc(C)sc23)C1 [Example Z286]	UniProtKB P0DMS8	IC50	> 500 nM

Could you share which IC50 value was measured for C[C@H](O)CNC(=O)c1nc(N[C@@H](C)c2cncc(Cl)c2)nc2ccsc12 [Example Z292] ?
50 to 100 nM

Likewise for Cc1cc2nc(N[C@@H](C)c3cccnc3)nc(C(=O)N3CC[C@@H](CO)C3)c2s1 [Example Z335] ?
> 500 nM

###

Target: adenosine A3 receptor (Homo sapiens (Human))
Sequence (P0DMS8 whole entry): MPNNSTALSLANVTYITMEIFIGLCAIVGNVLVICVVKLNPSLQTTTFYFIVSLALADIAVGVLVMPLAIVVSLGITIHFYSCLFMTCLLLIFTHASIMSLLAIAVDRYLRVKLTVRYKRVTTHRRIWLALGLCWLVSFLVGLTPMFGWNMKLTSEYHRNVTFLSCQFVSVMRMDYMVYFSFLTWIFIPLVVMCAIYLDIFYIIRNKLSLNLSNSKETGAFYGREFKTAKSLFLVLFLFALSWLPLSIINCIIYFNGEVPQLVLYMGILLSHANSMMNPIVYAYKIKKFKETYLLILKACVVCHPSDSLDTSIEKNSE
Experiment: A3 cAMP IC50 assay (Table 1)
Type: biochemical
pIC50: −log10 of the molar value.
assay.endpoint: pIC50

smiles.input	value
C[C@H](Nc1nc(C(=O)N2CC[C@H](O)C2)c2sccc2n1)c1ccccn1	< 6.30
C[C@H]1CCN(C(=O)c2nc(N[C@@H](C)c3ccccn3)nc3ccsc23)C1	< 6.30
C[C@H](Nc1nc(C(=O)N2CCCC2)c2sccc2n1)c1ccccn1	< 6.30
COc1cc(F)cc(CNc2nc(C(=O)N3CC(O)C3)c3sccc3n2)c1	7.30 to 8.00
C[C@H](Nc1nc(C(=O)N2CCC2)c2sccc2n1)c1cccnc1	< 6.30
C[C@H](Nc1nc(C(=O)NC2CC2)c2sccc2n1)c1ccccn1	< 6.30
C[C@H](Nc1nc(C(=O)N2CCOC2)c2sccc2n1)c1ccccn1	< 6.30
CCOc1ccc(CNC(=O)c2nc(N[C@@H](C)c3ccccn3)nc3ccsc23)cn1	6.30 to 7.00

--- query ---
Could you share which pIC50 value was measured for `C[C@H](Nc1nc(C(=O)N2CCC2)c2sccc2n1)c1cncc(F)c1` ?
< 6.30

###

# key: entry, value: pIC50
Target: adenosine A2A receptor (Homo sapiens (Human), UniProt P29274)
Assay: Adenosine receptor activity assay (Table 1), A2A activity
Assay type: biochemical
Conditions: read-out: Ave A2A cAMP IC50
pIC50: −log10 of the molar value.

These solved cases illustrate the format of a correct answer.
compound	value
C[C@H](Nc1nc(C(=O)N2CC[C@@H](F)C2)c2sccc2n1)c1ccccn1	7.30 to 8.00
CCNC(=O)c1ccc(CCNC(=O)c2nc(N[C@@H](C)c3cncc(F)c3)nc3cc(C)sc23)cc1	< 6.30
C[C@H](Nc1nc(C(=O)NCCN2CCCC2)c2sccc2n1)c1cncc(F)c1	< 6.30
O=C(c1nc(NC(CO)c2cccnc2)nc2ccsc12)N1CCCC1 (centres unmarked)	< 6.30
C[C@H](Nc1nc(C(=O)N[C@@H]2CC[C@H](O)C2)c2sccc2n1)c1cncc(F)c1	7.00 to 7.30
C[C@H](Nc1nc(C(=O)NCCO)c2sccc2n1)c1ccccn1	6.30 to 7.00
O=C(c1nc(NCCc2ccc(O)cc2)nc2ccsc12)N1CCCC1	6.30 to 7.00

For the record `O=C(c1nc(NCc2cccc(F)n2)nc2ccsc12)N1CCCC1` , what value of pIC50 is listed for adenosine A2A receptor (Homo sapiens (Human), UniProt P29274)?
< 6.30
